src = ChEMBL document CHEMBL5579899

- Experimental protocol: Equilibrium solubility of compound […] at pH 6.8 by high-throughput analysis
- Type: physicochemical
Measured quantity: solubility

A selection of reference data follows.
COC[C@H](c1cnn2cc([C@@H](NC(=O)C(C)(F)F)C3CCC(F)(F)CC3)nc2c1)N1C[C@@H](C(F)(F)F)NC1=O
> 750 µM
C=C(F)C(=O)N[C@H](c1cn2ncc([C@@H](COC)N3C[C@@H](C(F)(F)F)NC3=O)cc2n1)C1CCC(F)(F)CC1
> 750 µM
COC[C@H](c1cnn2cc([C@@H](Nc3nnc(C)n3C)C3CCC(F)(F)CC3)nc2c1)N1C[C@@H](C(F)(F)F)NC1=O
> 750 µM
COC[C@H](c1cnn2cc([C@@H](NC(=O)/C(F)=C3\CCOC3)C3CCC(F)(F)CC3)nc2c1)N1C[C@@H](C(F)(F)F)NC1=O
> 750 µM
COC[C@H](c1cnn2cc([C@@H](NC(=O)/C(F)=C\C3(F)CC3)C3CCC(F)(F)CC3)nc2c1)N1C[C@@H](C(F)(F)F)NC1=O
560 µM
COC[C@H](c1cnn2cc([C@@H](Nc3nnc(C)o3)C3CCC(F)(F)CC3)nc2c1)N1C[C@@H](C(F)(F)F)NC1=O
> 750 µM
C/C=C(\F)C(=O)N[C@H](c1cn2ncc([C@@H](COC)N3C[C@@H](C(F)(F)F)NC3=O)cc2n1)C1CCC(F)(F)CC1
700 µM
COC[C@H](c1cnn2cc([C@@H](NC(=O)/C(F)=C\C3CC3)C3CCC(F)(F)CC3)nc2c1)N1C[C@@H](C(F)(F)F)NC1=O
150 µM

Entry COC[C@H](c1cnn2cc([C@@H](Nc3nnc(C4CC4)o3)C3CCC(F)(F)CC3)nc2c1)N1C[C@@H](C(F)(F)F)NC1=O ; solubility = > 750 µM
